- test-system: Alpha-2B adrenergic receptor (Homo sapiens); also: assay procedure not described here
- Sequence (P18089 whole entry): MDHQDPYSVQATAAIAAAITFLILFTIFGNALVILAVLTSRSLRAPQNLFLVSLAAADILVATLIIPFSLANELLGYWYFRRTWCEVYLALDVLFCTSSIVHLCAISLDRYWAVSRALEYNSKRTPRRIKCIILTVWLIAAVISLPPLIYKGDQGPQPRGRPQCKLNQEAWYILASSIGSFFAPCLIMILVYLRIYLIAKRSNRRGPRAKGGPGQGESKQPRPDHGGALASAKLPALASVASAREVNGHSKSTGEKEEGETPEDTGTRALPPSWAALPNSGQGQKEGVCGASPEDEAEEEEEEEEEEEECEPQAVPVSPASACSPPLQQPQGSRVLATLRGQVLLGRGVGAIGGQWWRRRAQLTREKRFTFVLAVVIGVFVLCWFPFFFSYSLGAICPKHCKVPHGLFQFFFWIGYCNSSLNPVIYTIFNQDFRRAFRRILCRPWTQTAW
property-measured: AC50

See these solved cases before continuing.
compound	val
CC(C)N(CCCCOCC(=O)O)c1cnc(-c2ccccc2)c(-c2ccccc2)n1	> 30 µM
Cn1cc(C(=O)[C@@H]2CCc3nc[nH]c3C2)c2ccccc21 [RAMOSETRON]	0.34 µM
CN(C)CCCN1c2ccccc2CCc2ccccc21 [IMIPRAMINE]	0.32 µM
CCN1CCCC1CNC(=O)c1cc(S(=O)(=O)CC)ccc1OC (stereo unspecified) [SULTOPRIDE]	10 µM
COc1ccc([C@@H]2CC(=O)c3c(O)cc(O)cc3O2)cc1O [HESPERETIN]	> 10 µM

Alpha-2B adrenergic receptor (Homo sapiens) / AC50 / NS(=O)(=O)c1cc2c(cc1Cl)N=C(CSCc1ccccc1)NS2(=O)=O [BENZTHIAZIDE] : value?; also: assay procedure not described here
7.4 µM

Same question, CN1Cc2c(N)cccc2C(c2ccccc2)C1 (stereo unspecified) [NOMIFENSINE] this time
> 30 µM

And then C=CC[N+]1([C@H]2C[C@H]3[C@@H]4CC[C@H]5C[C@H](O)[C@@H](N6CCOCC6)C[C@]5(C)[C@H]4CC[C@]3(C)[C@H]2OC(C)=O)CCCC1 [ROCURONIUM] , what is it?
> 30 µM

Field entry: CCc1cc2c(s1)-n1c(C)nnc1CN=C2c1ccccc1Cl [ETIZOLAM]
> 30 µM

Same again, this time with COc1cc(C(=O)OCc2cccc(COC(=O)c3cc(OC)c(OC)c(OC)c3)n2)cc(OC)c1OC [PIROZADIL]
> 30 µM

Another compound to check: O=c1c(O)c(-c2ccc(O)c(O)c2)oc2cc(O)cc(O)c12 [QUERCETIN]
> 10 µM

Repeat with CC(C)(C)NCC(O)c1ccccc1Cl (stereo unspecified) [TULOBUTEROL]
> 30 µM

Queued: O=C(O)Cc1ccccc1Oc1ccc(Cl)cc1Cl [FENCLOFENAC]
> 10 µM

// same read-out, input: CC(=O)c1ccc(S(=O)(=O)NC(=O)NC2CCCCC2)cc1 [ACETOHEXAMIDE]
> 10 µM

# repeat for O=C1OC(OC(=O)c2cccnc2Nc2cccc(C(F)(F)F)c2)c2ccccc21 (stereo unspecified) [TALNIFLUMATE]
> 30 µM

Can you handle O=C(c1cc(Cc2n[nH]c(=O)c3ccccc23)ccc1F)N1CCN(C(=O)C2CC2)CC1 [OLAPARIB] next?
> 10 µM

C[N+]12CCC(CC1)C(OC(=O)C(O)(c1ccccc1)c1ccccc1)C2 (stereo unspecified) ?
> 30 µM

What about this compound? CN(C)C/C=C/C(=O)Nc1cc2c(Nc3ccc(F)c(Cl)c3)ncnc2cc1O[C@H]1CCOC1 [AFATINIB]
0.87 µM

One more compound: Cc1ccccc1-n1c(CF)nc2ccc(N)cc2c1=O [AFLOQUALONE]
> 10 µM

Entry source: ChEMBL document CHEMBL5291721
